# target: recombinant human TFPI (tissue factor pathway inhibitor) (human, UniProt P10646 29-304)
# test-details: cell-based or functional assay
measured-property: FXa assay % of FXa alone, 2.5 nM Ab, 10 nM TFPI (%)
Please respond with the number in % and leave the unit unwritten.

Q. Give FXa assay % of FXa alone, 2.5 nM Ab, 10 nM TFPI for the following binder: clone 2 (antibody, V domains shown) VH: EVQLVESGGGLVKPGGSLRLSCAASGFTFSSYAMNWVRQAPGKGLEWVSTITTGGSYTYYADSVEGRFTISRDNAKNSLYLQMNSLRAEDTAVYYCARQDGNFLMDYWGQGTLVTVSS VL: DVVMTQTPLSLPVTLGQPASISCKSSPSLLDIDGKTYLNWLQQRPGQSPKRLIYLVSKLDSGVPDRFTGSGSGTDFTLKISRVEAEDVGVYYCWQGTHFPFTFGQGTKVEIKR
A. 7.3
